B1: TPR t1 (parent)
chain: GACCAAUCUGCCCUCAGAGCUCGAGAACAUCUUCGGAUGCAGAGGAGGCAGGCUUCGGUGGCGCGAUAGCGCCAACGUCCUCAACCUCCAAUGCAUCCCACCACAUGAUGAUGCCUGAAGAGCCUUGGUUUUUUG

variants of: B1; assay: polymerase ribozyme fitness, log enrichment relative to wild type (log ratio); higher = more active; in vitro selection for triplet polymerase activity
recorded-metric: polymerase ribozyme fitness (log ratio)
Lab note: jot down the number only; don't add units.

Please review the entries below; each comes with its answer.
{"sequence-variant": "C20U G63C C94A G120C", "polymerase ribozyme fitness (log ratio)": -2.23}
{"sequence-variant": "A5G G135U", "polymerase ribozyme fitness (log ratio)": -1.22}
{"sequence-variant": "C70G U129C", "polymerase ribozyme fitness (log ratio)": -3.02}

Fill blank: measured polymerase ribozyme fitness (log ratio) of the variant U21A A46U C53A G63C is ____.
-1.83

Fill blank: measured polymerase ribozyme fitness (log ratio) of the variant A83C U92A C114A G128C is ____.
-6.64

Fill blank: measured polymerase ribozyme fitness (log ratio) of the variant U7G U109C is ____.
-3.87

Fill blank: measured polymerase ribozyme fitness (log ratio) of the variant C73A C123A G135C is ____.
0.5

Fill blank: measured polymerase ribozyme fitness (log ratio) of the variant A105U G113U is ____.
-5.9

Fill blank: measured polymerase ribozyme fitness (log ratio) of the variant G25A C56A is ____.
-5.23

Fill blank: measured polymerase ribozyme fitness (log ratio) of the variant A18C U32C G120C is ____.
-0.763

Fill blank: measured polymerase ribozyme fitness (log ratio) of the variant C79G C123U is ____.
0.127

Fill blank: measured polymerase ribozyme fitness (log ratio) of the variant A18U G60U U92G is ____.
-3.05

Fill blank: measured polymerase ribozyme fitness (log ratio) of the variant U55A C64A C115G G128A is ____.
-6.49

Fill blank: measured polymerase ribozyme fitness (log ratio) of the variant G45A U55A is ____.
0.00657

Fill blank: measured polymerase ribozyme fitness (log ratio) of the variant C8A C53U C56A A75G is ____.
0.188

Fill blank: measured polymerase ribozyme fitness (log ratio) of the variant U78A C123U is ____.
1.1

Fill blank: measured polymerase ribozyme fitness (log ratio) of the variant C3U A43C U87G is ____.
-3

Fill blank: measured polymerase ribozyme fitness (log ratio) of the variant U106A C114G is ____.
-3.33

Fill blank: measured polymerase ribozyme fitness (log ratio) of the variant A6G A41G A50G C70U is ____.
-0.773
